meta.source: ChEMBL document CHEMBL5331070

molecular target: RecQ-like DNA helicase BLM (Homo sapiens); experiment: Inhibition of His-tagged BLM (unknown origin) expressed in Escherichia coli BL21 (DE3) using 5'-biotin-labeled duplex forked-DNA as substrate incubated for 10 mins followed by substrate addition measured after 30 mins in presence of ATP by electrophoretic mobility shift assay
readout_name: IC50 (µM)
Express it in µM; write the number only.

get_value(item= `CCN(CC)CCCNc1cc2nc(/C=C/c3ccc(C(C)C)cc3)n(Cc3ccccc3Br)c(=O)c2cc1F` , readout=IC50) returns 2.9

get_value(item= `CCN(CC)CCCNc1cc2nc(/C=C/c3ccc(C(C)C)cc3)n(CCN(C)C)c(=O)c2cc1F` , readout=IC50) returns 2.5

get_value(item= `CCN(CC)CCCNc1cc2nc(/C=C/c3ccc(C(C)C)cc3)n(CCC(C)C)c(=O)c2cc1F` , readout=IC50) returns 9.1

get_value(item= `CCCCCn1c(/C=C/c2ccc(C(C)C)cc2)nc2cc(NCCCN(CC)CC)c(F)cc2c1=O` , readout=IC50) returns 3.7

----------
test system: RKO; test: Inhibition of colony formation in human RKO cells incubated for 10 days by crystal violet staining based assay; assay type: functional, cell-based; conditions: 240 h
readout_name: pIC50
Reminder that pIC50 means the negative base-10 logarithm of the concentration expressed in mol/L.

get_value(item= `CCN(CC)CCCNc1cc2nc(/C=C/c3ccc(C(C)C)cc3)n(Cc3ccc(Br)cc3)c(=O)c2cc1F` , readout=pIC50) returns 6.15

----------
tested on: HCT-116; test: Antiproliferative activity against wild type human HCT-116 cells assessed as inhibition of cell growth incubated for 48 hrs by propidium iodide staining based high-content imaging analysis; format: functional; conditions: HCT-116, 48 h
readout_name: pIC50
Reminder that pIC50 means the negative base-10 logarithm of the concentration expressed in mol/L.

get_value(item= `CCN(CC)CCCNc1cc2nc(/C=C/c3ccc(C(C)C)cc3)n(Cc3ccc(Br)cc3)c(=O)c2cc1F` , readout=pIC50) returns 5.72

----------
I'd be grateful if you could share measured pIC50 for these entries.
biological target: RecQ-like DNA helicase BLM (Homo sapiens, UniProt P54132); assay: Inhibition of His-tagged BLM (unknown origin) expressed in Escherichia coli BL21 (DE3) using 5'-biotin-labeled duplex forked-DNA as substrate incubated for 10 mins followed by substrate addition measured after 30 mins in presence of ATP by electrophoretic mobility shift assay
Sequence (P54132 whole entry): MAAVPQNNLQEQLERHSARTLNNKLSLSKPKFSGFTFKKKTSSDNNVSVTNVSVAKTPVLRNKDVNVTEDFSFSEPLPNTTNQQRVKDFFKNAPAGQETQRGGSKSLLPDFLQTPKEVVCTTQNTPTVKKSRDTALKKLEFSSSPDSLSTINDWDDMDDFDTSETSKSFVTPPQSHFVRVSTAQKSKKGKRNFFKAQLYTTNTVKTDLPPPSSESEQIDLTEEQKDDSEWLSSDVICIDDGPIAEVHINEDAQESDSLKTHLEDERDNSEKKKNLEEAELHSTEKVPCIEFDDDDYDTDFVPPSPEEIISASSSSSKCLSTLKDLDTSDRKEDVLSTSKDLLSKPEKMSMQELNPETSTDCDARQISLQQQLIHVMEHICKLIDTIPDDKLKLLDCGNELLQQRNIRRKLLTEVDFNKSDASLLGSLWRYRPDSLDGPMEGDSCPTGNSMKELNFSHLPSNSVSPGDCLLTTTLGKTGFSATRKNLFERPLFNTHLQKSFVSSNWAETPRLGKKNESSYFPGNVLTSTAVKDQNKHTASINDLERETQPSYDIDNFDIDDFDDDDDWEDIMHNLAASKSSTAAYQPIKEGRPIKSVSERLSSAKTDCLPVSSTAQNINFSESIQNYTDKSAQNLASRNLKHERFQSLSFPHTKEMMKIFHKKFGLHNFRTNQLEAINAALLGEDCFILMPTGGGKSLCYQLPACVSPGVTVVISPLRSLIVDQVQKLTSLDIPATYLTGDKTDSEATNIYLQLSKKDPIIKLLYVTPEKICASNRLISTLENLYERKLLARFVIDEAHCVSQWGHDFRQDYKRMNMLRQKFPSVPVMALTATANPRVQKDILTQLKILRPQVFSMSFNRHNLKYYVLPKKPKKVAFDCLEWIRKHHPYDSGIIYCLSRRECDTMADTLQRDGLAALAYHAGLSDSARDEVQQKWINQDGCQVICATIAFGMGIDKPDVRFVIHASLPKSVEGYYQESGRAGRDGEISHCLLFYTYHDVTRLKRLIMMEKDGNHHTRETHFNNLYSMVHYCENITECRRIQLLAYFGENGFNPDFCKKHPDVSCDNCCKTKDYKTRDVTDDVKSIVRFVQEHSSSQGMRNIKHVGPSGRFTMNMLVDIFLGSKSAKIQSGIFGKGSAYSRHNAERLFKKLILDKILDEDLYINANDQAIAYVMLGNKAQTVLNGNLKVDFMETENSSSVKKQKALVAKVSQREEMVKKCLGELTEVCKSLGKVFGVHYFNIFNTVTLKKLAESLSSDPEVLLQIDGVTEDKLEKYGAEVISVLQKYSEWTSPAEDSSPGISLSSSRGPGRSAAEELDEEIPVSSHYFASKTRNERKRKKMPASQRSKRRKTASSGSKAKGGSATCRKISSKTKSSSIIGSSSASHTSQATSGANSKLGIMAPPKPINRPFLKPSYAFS
Reminder that pIC50 means the negative base-10 logarithm of the concentration expressed in mol/L.

The compound `CCN(CC)CCCNc1cc2nc(/C=C/c3ccc(C(C)C)cc3)n(Cc3ccccc3C(F)(F)F)c(=O)c2cc1F` on RecQ-like DNA helicase BLM (Homo sapiens, UniProt P54132): pIC50 was 5.28

The compound `CCN(CC)CCCNc1cc2nc(/C=C/c3ccc(C(C)C)cc3)n(CCCO)c(=O)c2cc1F` on RecQ-like DNA helicase BLM (Homo sapiens, UniProt P54132): pIC50 was 4.49

The compound `CCN(CC)CCCNc1cc2nc(/C=C/c3ccc(C(C)C)cc3)n(CCCCl)c(=O)c2cc1F` on RecQ-like DNA helicase BLM (Homo sapiens, UniProt P54132): pIC50 was 5.89

The compound `CCN(CC)CCCNc1cc2nc(/C=C/c3ccc(C(C)C)cc3)n(Cc3ccc(Br)cc3)c(=O)c2cc1F` on RecQ-like DNA helicase BLM (Homo sapiens, UniProt P54132): pIC50 was 6.10

The compound `CCN(CC)CCCNc1cc2nc(/C=C/c3ccc(C(C)C)cc3)n(CC3CC3)c(=O)c2cc1F` on RecQ-like DNA helicase BLM (Homo sapiens, UniProt P54132): pIC50 was 5.08

The compound `CCN(CC)CCCNc1cc2nc(/C=C/c3ccc(C(C)C)cc3)n(Cc3cccc(Br)c3)c(=O)c2cc1F` on RecQ-like DNA helicase BLM (Homo sapiens, UniProt P54132): pIC50 was 5.64

The compound `CCN(CC)CCCNc1cc2nc(/C=C/c3ccc(C(C)C)cc3)n(Cc3ccccc3F)c(=O)c2cc1F` on RecQ-like DNA helicase BLM (Homo sapiens, UniProt P54132): pIC50 was 5.28

The compound `CCN(CC)CCCNc1cc2nc(/C=C/c3ccc(C(C)C)cc3)n(CCc3ccccc3)c(=O)c2cc1F` on RecQ-like DNA helicase BLM (Homo sapiens, UniProt P54132): pIC50 was 5.40

The compound `CCCCn1c(/C=C/c2ccc(C(C)C)cc2)nc2cc(NCCCN(CC)CC)c(F)cc2c1=O` on RecQ-like DNA helicase BLM (Homo sapiens, UniProt P54132): pIC50 was 5.32

The compound `C=C(C)Cn1c(/C=C/c2ccc(C(C)C)cc2)nc2cc(NCCCN(CC)CC)c(F)cc2c1=O` on RecQ-like DNA helicase BLM (Homo sapiens, UniProt P54132): pIC50 was 5.10

The compound `CCN(CC)CCCNc1cc2nc(/C=C/c3ccc(C(C)C)cc3)n(CCCOC(C)C)c(=O)c2cc1F` on RecQ-like DNA helicase BLM (Homo sapiens, UniProt P54132): pIC50 was 5.28

The compound `CCN(CC)CCCNc1cc2nc(/C=C/c3ccc(C(C)C)cc3)n(CCCl)c(=O)c2cc1F` on RecQ-like DNA helicase BLM (Homo sapiens, UniProt P54132): pIC50 was 5.29

The compound `CCN(CC)CCCNc1cc2nc(/C=C/c3ccc(C(C)C)cc3)n(CC#N)c(=O)c2cc1F` on RecQ-like DNA helicase BLM (Homo sapiens, UniProt P54132): pIC50 was 5.37
